Source of measurements: the supplement of paper PMC10981050

Tested on: K562
testProtocol: cell viability relative to vehicle control; higher = less cytotoxic;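 also: after 48 h exposure read by CellTiter-Glo luminescence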
experimentalSetup: 10 µM; SRSF2 genotype: SRSF2 wt/wt
This section presents compounds with their documented cell viability values.

>  <compound>
COC(=O)C[C@](O)(CCCC(C)(C)O)C(=O)O[C@@H]1C(OC)=C[C@]23CCCN2CCc2cc4c(cc2[C@H]13)OCO4 [Homoharringtonine]

>  <cell viability>
23%

$$$$
>  <compound>
CC(=O)Cc1cc(=O)c2c(C)cc(O)c([C@@H]3O[C@H](CO)[C@@H](O)[C@H](O)[C@H]3O)c2o1 [Aloesin]

>  <cell viability>
102%

$$$$
>  <compound>
CC(C)(CO)c1cc2cc(NC(=O)C3(c4ccc5c(c4)OC(F)(F)O5)CC3)c(F)cc2n1C[C@@H](O)CO

>  <cell viability>
87.5%

$$$$
>  <compound>
CO[C@H]1C(=O)[C@]2(C)[C@@H](OC)C[C@H]3OC[C@@]3(OC(C)=O)[C@H]2[C@H](OC(=O)c2ccccc2)[C@]2(O)C[C@H](OC(=O)[C@H](O)[C@@H](NC(=O)OC(C)(C)C)c3ccccc3)C(C)=C1C2(C)C [Cabazitaxel (Jevtana)]

>  <cell viability>
36.7%

$$$$
>  <compound>
Cc1cc(C)nc(O)n1.O=C(Nc1ccc([N+](=O)[O-])cc1)Nc1ccc([N+](=O)[O-])cc1 [Nicarbazin]

>  <cell viability>
110%

$$$$
>  <compound>
Clc1ccc(NN=C(c2ccccc2)c2ccccn2)nc1

>  <cell viability>
20%

$$$$

###

System: MARIMO
testProtocol: cell viability relative to vehicle control; higher = less cytotoxic
experimentalSetup: 10 µM; SRSF2 genotype: SRSF2 P95H/wt
Structures can show the parent of a compound that is named as a salt.

>  <compound>
Cc1cc(NC(=O)c2cccc(NC(=O)/C=C/CN(C)C)c2)ccc1Nc1nccc(-c2cccnc2)n1

>  <assayedTarget>
MARIMO

>  <unitInfo>
%

>  <cell viability>
53.1

$$$$
>  <compound>
COc1ccccc1OCC(O)COC(N)=O (centres undefined) [Methocarbamol (Robaxin)]

>  <assayedTarget>
MARIMO

>  <unitInfo>
%

>  <cell viability>
94.9

$$$$
>  <compound>
NCC(=O)Nc1ccc(-n2nc(C(F)(F)F)cc2-c2ccc3c(ccc4ccccc43)c2)cc1

>  <assayedTarget>
MARIMO

>  <unitInfo>
%

>  <cell viability>
0.31

$$$$
>  <compound>
CCOC(=O)N1CCN(c2ccc(OC[C@H]3CO[C@](Cn4ccnc4)(c4ccc(Cl)cc4Cl)O3)cc2)CC1

>  <assayedTarget>
MARIMO

>  <unitInfo>
%

>  <cell viability>
29.3

$$$$
>  <compound>
O=C1C[C@@H](c2ccc(O)cc2)Oc2cc(O)cc(O)c21

>  <assayedTarget>
MARIMO

>  <unitInfo>
%

>  <cell viability>
106

$$$$
>  <compound>
CC(CN(C)C)Oc1nc(Nc2cc3cccc(Cl)c3cn2)cnc1C#N (centres undefined)

>  <assayedTarget>
MARIMO

>  <unitInfo>
%

>  <cell viability>
62.2

$$$$
>  <compound>
CC(=O)OCC=Cc1ccccc1 [Cinnamyl acetate]

>  <assayedTarget>
MARIMO

>  <unitInfo>
%

>  <cell viability>
99.4

$$$$
>  <compound>
CC(COc1ccccc1)N(CCCl)Cc1ccccc1 (centres undefined) [Phenoxybenzamine HCl]

>  <assayedTarget>
MARIMO

>  <unitInfo>
%

>  <cell viability>
67.3

$$$$
>  <compound>
[F][Ti]([F])([F])[F] [Titanium tetrafluoride]

>  <assayedTarget>
MARIMO

>  <unitInfo>
%

>  <cell viability>
99.2

$$$$
